- MEASURED_ON: HLA-A2
- PROTOCOL_TEXT: functional competition vs tyrosinase 368-376 on T2 cells, readout lysis by CTL LAU 156/34; 50% inhibition
QUANTITY_MEASURED: IC50 (nM)

// below: answered binders
[[record]]
binder = "AAAAKIFYA (modifications not checked) [… (SEQ ID NO: 3)]"
units_of_measure = "nM"
assay_result = 133

[[record]]
binder = "AAAPAIFYA (modifications not checked) [… (SEQ ID NO: 4)]"
units_of_measure = "nM"
assay_result = 22


(1) AAAPKIFYA (modifications not checked) [… (SEQ ID NO: 1)]
(2) AAAPKAFYA (modifications not checked) [… (SEQ ID NO: 5)]
(3) AAGPKIFYA (modifications not checked) [… (SEQ ID NO: 2)]
Highest IC50 first, then in falling order down to the smallest. Please list each label once, in the requested order.
3, 2, 1
